# System: Differentiated U937 cells
# testName: MTT assay (loss of cell viability)
# Format: cell-based, human
# conditionContext: loss of cell viability; 24 hr; 10 ug/ml
endpointLabel: MTT 24 hr

Worked examples follow.
compound	endpointLabel	result
Cc1ccc(-n2nc(C(C)(C)C)cc2NC(=O)Nc2ccc(OCc3ccnc(NC(=O)CSCCN4CCOCC4)c3)c3ccccc23)cc1 [Example 31]	MTT 24 hr	+ (+ >30% at 10 ug/ml)
COCCNCC(=O)Nc1cc(COc2ccc(NC(=O)Nc3cc(C(C)(C)C)nn3-c3ccc(C)cc3)c3ccccc23)ccn1 [Example 25]	MTT 24 hr	− (− <30%)
CNC(C)(C)C(=O)Nc1cc(COc2ccc(NC(=O)Nc3cc(C(C)(C)C)nn3-c3ccc(C)cc3)c3ccccc23)ccn1 [Example 8]	MTT 24 hr	+ (+ >30% at 10 ug/ml)
Cc1ccc(-n2nc(C(C)(C)C)cc2NC(=O)Nc2ccc(OCc3ccnc(NC(=O)CCS(C)(=O)=O)c3)c3ccccc23)cc1 [Example 17]	MTT 24 hr	− (− <30%)

Hi! What's the reported MTT 24 hr for COCC(=O)Nc1cc(OCCc2ccc(NC(=O)Nc3cc(C(C)(C)C)nn3-c3ccc(C)cc3)c3ccccc23)ccn1 [Example 43] on Differentiated U937 cells?
− (− <30%)

Return MTT 24 hr measured with Differentiated U937 cells given this compound: Cc1ccc(-n2nc(C(C)(C)C)cc2NC(=O)Nc2ccc(OCc3ccnc(NC(=O)CN4CCN(C)CC4)c3)c3ccccc23)cc1 [Example 23]
+ (+ >30% at 10 ug/ml)

###

# targetUnderTest: recombinant, phosphorylated p38 MAPK gamma (MAPK12:Millipore) (Homo sapiens)
# Sequence (P53778 whole entry): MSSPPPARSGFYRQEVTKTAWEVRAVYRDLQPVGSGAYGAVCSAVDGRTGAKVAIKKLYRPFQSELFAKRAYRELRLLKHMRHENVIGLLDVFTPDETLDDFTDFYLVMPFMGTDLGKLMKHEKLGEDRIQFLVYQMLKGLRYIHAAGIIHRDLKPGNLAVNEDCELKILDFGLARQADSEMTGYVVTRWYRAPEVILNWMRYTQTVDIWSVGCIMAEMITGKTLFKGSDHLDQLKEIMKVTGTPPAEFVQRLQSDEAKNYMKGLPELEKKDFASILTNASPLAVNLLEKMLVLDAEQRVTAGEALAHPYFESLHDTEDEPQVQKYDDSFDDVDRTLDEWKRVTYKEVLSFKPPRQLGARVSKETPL
# testName: Enzyme inhibition assay (FRET, Z-LYTE), p38 MAPK gamma
# conditionContext: read-out: IC50 values P38γ enzyme
Catalogue of IC50 readings, one per entry.

molecule	IC50
Cc1ccc(-n2nc(C(C)(C)C)cc2NC(=O)Nc2ccc(OCc3ccnc(NC(=O)CN4CCN(C)CC4)c3)c3ccccc23)cc1	< 0.5 µM
Cc1ccc(-n2nc(C(C)(C)C)cc2NC(=O)Nc2ccc(OCc3ccnc(NC(=O)[C@H]4COCCN4)c3)c3ccccc23)cc1	< 5 µM
CO[C@@H](C)C(=O)Nc1cc(COc2ccc(NC(=O)Nc3cc(C(C)(C)C)nn3-c3ccc(C)cc3)c3ccccc23)ccn1	< 0.5 µM
COCC(=O)Nc1cc(C(C)COc2ccc(NC(=O)Nc3cc(C(C)(C)C)nn3-c3ccc(C)cc3)c3ccccc23)ccn1 (stereo not shown)	> 5 µM
Cc1ccc(-n2nc(C(C)(C)C)cc2NC(=O)Nc2ccc(OCc3ccnc(NC(=O)N4CCN(S(C)(=O)=O)C4=O)c3)c3ccccc23)cc1	> 5 µM
COCCC(=O)Nc1cc(COc2ccc(NC(=O)Nc3cc(C(C)(C)C)nn3-c3ccc(C)cc3)c3ccccc23)ccn1	< 0.5 µM
Cc1ccc(-n2nc(C(C)(C)C)cc2NC(=O)Nc2ccc(OCc3ccnc(NC(=O)CS(=O)(=O)CCN4CCOCC4)c3)c3ccccc23)cc1	< 0.5 µM
Cc1ccc(-n2nc(C(C)(C)C)cc2NC(=O)Nc2ccc(OCc3ccnc(NC(=O)CSCCN4CCOCC4)c3)c3ccccc23)cc1	< 0.5 µM
COCC(=O)Nc1cc(C(C)(C)COc2ccc(NC(=O)Nc3cc(C(C)(C)C)nn3-c3ccc(C)cc3)c3ccccc23)ccn1	> 5 µM
CNC(=O)Nc1cc(COc2ccc(NC(=O)Nc3cc(C(C)(C)C)nn3-c3ccc(C)cc3)c3ccccc23)ccn1	< 0.5 µM

Entry under review: COCCN(CCOC)CC(=O)Nc1cc(COc2ccc(NC(=O)Nc3cc(C(C)(C)C)nn3-c3ccc(C)cc3)c3ccccc23)ccn1 . Reported IC50?
< 5 µM

What IC50 value was documented for this molecule, CO[C@H](C)C(=O)Nc1cc(COc2ccc(NC(=O)Nc3cc(C(C)(C)C)nn3-c3ccc(C)cc3)c3ccccc23)ccn1 ?
< 5 µM
